System: HBV
Assay: Anti-HBV assay (inhibition of HBV replication in HepG2.cl42 cells, HBV DNA by qPCR)
Assay type: cell-based, HBV ayw strain
Conditions: Hepatitis B virus, 96 h, treated four days, HBV DNA quantified by real time PCR, read-out: HBsAg EC50
Measured endpoint: EC50

# Compound, Experimental result
data = [
    ("C[C@H]1c2c(noc2-c2cn(C)nn2)CCN1C(=O)Nc1cc(F)c(F)c(F)c1", "≥ 1000 nM"),
    ("C[C@H]1Cc2noc(N3CCCCC3=O)c2CN1C(=O)Nc1cc(F)c(F)c(F)c1", "< 100 nM"),
    ("COC[C@@H]1CN(c2onc3c2CN(C(=O)Nc2cc(F)c(F)c(F)c2)[C@@H](C)C3)C(=O)O1", "100 to 1000 nM"),
    ("C[C@H]1c2c(noc2C2CCCC2)CCN1C(=O)Nc1cc(F)c(F)c(F)c1", "≥ 1000 nM"),
    ("C[C@H]1Cc2noc(N3CCC(CC(=O)O)C3=O)c2CN1C(=O)Nc1cc(F)c(F)c(F)c1 (some centres unmarked)", "≥ 1000 nM"),
]

In: Reported EC50 for Cc1nc(-c2onc3c2CN(C(=O)Nc2cc(F)c(F)c(F)c2)[C@@H](C)C3)c(C)o1 : what is it?
Out: 100 to 1000 nM

In: Quick check: EC50 of O=C(Nc1cc(F)c(F)c(F)c1)N1CCc2noc(C3CCCCC3)c2C1 ?
Out: 100 to 1000 nM

In: Dear colleague, I am looking for the recorded EC50 of the following compound: O=C(Nc1cc(F)c(F)c(F)c1)N1CCc2noc(N3CCOC3=O)c2C1
Out: 100 to 1000 nM

FYI, the data here is from patent US20210079015A1.
